meta.source: paper PMC4132724

Collected Kd values appear next to each entry.
# measured_on: T1, Pot1pN (Schizosaccharomyces pombe, UniProt O13988 1-185)
# T1 sequence: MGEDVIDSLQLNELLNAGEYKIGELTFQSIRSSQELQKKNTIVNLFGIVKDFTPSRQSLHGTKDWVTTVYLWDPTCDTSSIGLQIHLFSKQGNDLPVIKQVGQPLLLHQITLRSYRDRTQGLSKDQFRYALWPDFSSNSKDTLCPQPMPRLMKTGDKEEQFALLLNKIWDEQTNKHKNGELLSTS
# procedure_text: EMSA
The figure you give is taken to be in nM; do not add the unit.

{"columns": ["binder", "val"],
 "data": [
  ["GGTCACGGTCACAGGTTACA (ssDNA) [20-mer control (GGTTAC)]", 66]
]}

// returns reported Kd for input GGTCACGGTCACAGGUTACA (ssDNA, 5-hydroxymethyl-2'-deoxyuridine at position 16 (written U)) [5hmU at T3]
67
